Cited source: patent US20030181390A1

# EXPERIMENTAL_PROTOCOL: Caco-2 homogenate S9 stability / release of gabapentin
# Assay type: in vitro ADME
# PROTOCOL_CONDITIONS: incubation with Caco-2 homogenate for 1 hour
REPORTED_PROPERTY: % of prodrug surviving intact (%)
Enter your answer as a number in %; do not include the unit.

INSERT INTO results (molecule, recorded_result) VALUES
  ('N[C@@H](Cc1ccc(Br)cc1)C(=O)NCC1(CC(=O)O)CCCCC1 [1ah, L-4-Bromophenylalanine-Gabapentin]', 79),
  ('N#Cc1cccc(C[C@H](N)C(=O)NCC2(CC(=O)O)CCCCC2)c1 [1al, L-3-Cyanophenylalanine-Gabapentin]', 46),
  ('N[C@@H](Cc1cccc2ccccc12)C(=O)NCC1(CC(=O)O)CCCCC1 [1l, L-1-Naphthylalanine-Gabapentin]', 29),
  ('N#Cc1ccc(C[C@H](N)C(=O)NCC2(CC(=O)O)CCCCC2)cc1 [1am, L-4-Cyanophenylalanine-Gabapentin]', 90),
  ('N[C@@H](Cc1cc(F)cc(F)c1)C(=O)NCC1(CC(=O)O)CCCCC1 [1ao, L-3,5-Difluorophenylalanine-Gabapentin]', 48);

Challenge: Specify reported % of prodrug surviving intact for the molecule shown: NC(Cc1ccc(F)cc1F)C(=O)NCC1(CC(=O)O)CCCCC1 (stereo not shown) [1ap]
Response given: 90

Challenge: Specify reported % of prodrug surviving intact for the molecule shown: N[C@@H](Cc1ccc(C(F)(F)F)cc1)C(=O)NCC1(CC(=O)O)CCCCC1 [1aa]
Response given: 97
